- assay.method.text: cytotoxicity in IOSE-T80 ovarian epithelial cells, dose response, selectivity assay for PAX8 inhibitor project, cell-based, cherry-pick (AID 687032);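 note: cells exposed to compound for 96 h before reading; 0% = neutral control wells and -100% = 2 µM mitoxantrone kill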
- condition: CellTiterGlo ATP luminescence, 96 h; series mostly up to 35 µM
Measured potencies and affinities stand elsewhere. Records with an inconclusive call do not appear. Calls of active or inactive are those of the source.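 Rule for the calls: active = fitted half-maximal concentration for viability loss no higher than twice the top valid dose, in every repeat run; inconclusive = repeat runs disagree, flat partial loss, or poor curve fit; inactive = the rest.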
metric: outcome

**Q:** # lookup: outcome of C[C@@H]1CN([C@@H](C)CO)C(=O)Cc2cc(NS(=O)(=O)c3cccs3)ccc2O[C@H]1CN(C)Cc1ccc(C(F)(F)F)cc1
**A:** inactive

**Q:** # lookup: outcome of O=C(c1ccc(F)cc1)N1CC(=O)N2[C@@H](CO)[C@@H](c3ccc(C#Cc4ccc(F)cc4)cc3)[C@@H]2C1
**A:** inactive

**Q:** # lookup: outcome of C[C@@H]1CN([C@H](C)CO)C(=O)c2cc(NS(=O)(=O)c3ccc(Cl)cc3)ccc2O[C@@H](C)CCCCO[C@@H]1CN(C)CC1CCCCC1
**A:** inactive

**Q:** # lookup: outcome of Cc1ccc(S(=O)(=O)Nc2ccc3c(c2)C(=O)N([C@H](C)CO)C[C@H](C)[C@@H](CN(C)Cc2ccc(C(F)(F)F)cc2)OCCCC[C@H](C)O3)cc1
**A:** inactive

# batch size: 3; output outcome per entry
1. C[C@H](NC(=O)C[C@@H]1C[C@@H]2c3cc(NC(=O)Nc4ccc(C(F)(F)F)cc4)ccc3O[C@@H]2[C@@H](CO)O1)c1ccccc1
2. C[C@@H]1CN([C@H](C)CO)C(=O)c2cc(NC(=O)Nc3ccc(C(F)(F)F)cc3)ccc2O[C@@H](C)CCCCO[C@H]1CN(C)Cc1ccc(Cl)c(Cl)c1
3. Cc1cccc(OCc2nc(-c3cccnc3)no2)c1

**A:**
1: inactive; 2: inactive; 3: inactive

###

Task for the reader: assign each of the following compounds its reported z-score.
- assay.method.text: PSAC antagonists in infected red cells, primary screen, cell-based, P. falciparum Indochina, OD700, 18 h (AID 1157)
- condition: P. falciparum Indochina infected erythrocytes, osmotic lysis OD700, 18 h; higher = more signal, called active from +8 up or from −8 down
Give bare numbers.

Example compounds with recorded z-score:
**Q:** # lookup: z-score of CC(C)(C)OC(=O)CC[C@]1(C(=O)NCc2ccccc2)N=C(c2ccc(OCCCO)cc2)O[C@H]1c1ccccc1N=[N+]=[N-]
**A:** 6.66

**Q:** # lookup: z-score of CCOC(=O)C[C@H]1[C@H](OC(=O)Cc2ccc3c(c2)OCO3)[C@@H](NC(=O)c2ccc3ccccc3c2)c2cc(OCCCO)ccc2N1C(=O)c1ccc2ccccc2n1
**A:** 0.0679

**Q:** # lookup: z-score of CC(C)(C)OC(=O)CC[C@@]12N=C(c3ccc(OCCCO)cc3)O[C@@H]1c1ccccc1N(Cc1ccccc1)C2=O
**A:** 2.24

**Q:** # lookup: z-score of C=CCN1C(=O)[C@@]2(O[C@@H](CCO)[C@H]([Si](C)(C)c3ccc(OC)cc3)[C@H]2C)c2cc(N(C=O)c3ccccc3)ccc21
**A:** 0.279

# batch size: 3; output z-score per entry
1. C=CCC(OC(C)=O)[C@@H]1[C@@H](N(Cc2cccc3ccccc23)C(=O)Cc2ccc(OC)cc2)c2cc(OCCCO)ccc2N1C(=O)Cc1ccc(OC)cc1 (some centres undefined)
2. NCCCCCNC(=O)[C@H]1C[C@H]2C(=O)NCC(=O)N2[C@H]1c1ccc(O)cc1
3. COCCCNC(=O)[C@@]1(Cc2ccccc2CN=[N+]=[N-])COC(c2ccc(OCCCO)cc2)=N1

**A:**
1: 0.506; 2: 0.252; 3: 3.5

# batch size: 7; output z-score per entry
1. C=CCOC(=O)[C@H]1[C@@H]2C(=O)O[C@@H](c3ccccc3)[C@@H](c3ccccc3)N2[C@@H](c2ccc(OCCOC(=O)[C@H]3C[C@H]4C(=O)N5CCC[C@H]5C(=O)N4[C@H]3c3cccc(OCCO)c3)cc2)[C@]12C(=O)Nc1ccccc12
2. CO[C@H]1O[C@H](CO)[C@@H](OC(=O)Nc2ccccc2)[C@H](OC(=O)Nc2ccccc2-c2ccccc2)[C@@H]1OC(=O)Nc1ccccc1-c1ccccc1
3. O=C(O)[C@H]1C[C@H]2C(=O)N[C@@H](Cc3ccccc3)C(=O)N2[C@H]1c1ccc(O)cc1
4. CCOC(=O)C[C@H]1[C@H](OC(=O)c2cc3ccccc3oc2=O)[C@@H](NC(=O)c2ccccc2)c2cc(OCCCO)ccc2N1C(=O)Cc1ccc(OC)cc1
5. C=CC[C@]1(C(=O)N2CCCCC2)COC(c2ccc(OCCCO)cc2)=N1
6. C=C(COC)C(=O)CC[C@@H](OC(=O)c1ccccc1-c1ccccc1C(=O)O)c1cccc(OCCO)c1
7. CC(C)C[C@@H]1NC(=O)[C@H]2C[C@@H](C(=O)NCCCC[N+](C)(C)C)[C@@H](c3cccc(OCCO)c3)N2C1=O

**A:**
1. 0.741
2. -2.03
3. -0.139
4. -2.29
5. 0.866
6. 0.236
7. -2.05
